Please go through the items and note down their [^14C]-Citrate Uptake, %.
systemUnderTest: human NaCT (Homo sapiens)
Sequence (Q86YT5 whole entry): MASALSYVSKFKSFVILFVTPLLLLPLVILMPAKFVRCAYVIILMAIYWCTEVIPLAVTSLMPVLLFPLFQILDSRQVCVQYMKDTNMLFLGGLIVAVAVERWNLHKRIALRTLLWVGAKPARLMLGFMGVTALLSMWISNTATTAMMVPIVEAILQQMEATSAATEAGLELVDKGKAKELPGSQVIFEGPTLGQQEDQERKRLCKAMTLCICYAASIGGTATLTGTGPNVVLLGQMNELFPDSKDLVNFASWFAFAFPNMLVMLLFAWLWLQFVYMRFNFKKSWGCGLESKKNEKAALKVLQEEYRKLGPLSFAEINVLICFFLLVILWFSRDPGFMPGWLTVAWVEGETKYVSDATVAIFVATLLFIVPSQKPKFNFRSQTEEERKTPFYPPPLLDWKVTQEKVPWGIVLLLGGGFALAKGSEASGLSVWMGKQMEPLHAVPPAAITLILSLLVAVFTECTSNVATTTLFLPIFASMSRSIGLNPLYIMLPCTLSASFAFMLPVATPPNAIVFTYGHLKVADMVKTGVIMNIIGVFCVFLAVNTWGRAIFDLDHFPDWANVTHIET
experimentSummary: Uptake via human NaCT expressed in HRPE cells
Format: cell-based
experimentalContext: [14C]-citrate 20 μM; unlabeled compound 2.5 mM; none = 100
Give your result in % as a bare value.

Report [^14C]-Citrate Uptake, % for O=C(O)/C=C(/CC(=O)O)C(=O)O [cis-Aconitate, cis-aconitate] tested on human NaCT (Homo sapiens). 116

Recorded [^14C]-Citrate Uptake, % for CC(=O)C(=O)O [Pyruvate, pyruvate] with human NaCT (Homo sapiens), please? 108

For human NaCT (Homo sapiens), provide [^14C]-Citrate Uptake, % of O=C(O)CCC(=O)O [Succinate, succinate] please. 67

Which [^14C]-Citrate Uptake, % is reported with human NaCT (Homo sapiens) for this entry: O=C(O)CC(O)(CC(=O)O)C(=O)O [Citrate] ? 16

// lookup [^14C]-Citrate Uptake, % | system=human NaCT (Homo sapiens) | key= O=C(O)CC(O)C(=O)O (centres unmarked) [Malate, malate] 62
